Where do these numbers come from? They come from the Human Domainome abundance scans (Beltran et al. 2025).

For each record, write down the corresponding abundance fitness.
B1: Serine/threonine-protein kinase A-Raf, residues 21 to 89; numbered along this chain, P10398 (parent)
chain: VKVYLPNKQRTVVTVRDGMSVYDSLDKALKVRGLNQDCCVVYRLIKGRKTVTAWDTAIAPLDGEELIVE

variants of: B1; test: abundance fitness (aPCA) (normalised: wild type 0, dead -1); higher = more abundant; growth selection in yeast, the domain comes from the species named; conditions: Homo sapiens
Give bare numbers.

Query block: Specify reported abundance fitness for the variant shown: R48C
Result block: -0.366

Query block: Specify reported abundance fitness for the variant shown: Y22G
Result block: 0.105

Query block: Dear colleague, please send me the reported abundance fitness for L29V when you can.
Result block: -0.806

Query block: Please give the documented abundance fitness of E65R
Result block: -0.385

Query block: Give abundance fitness for the following variant: L25E
Result block: -0.944

// for each variant below, give its abundance fitness
1. V13D
2. Q36K
3. V1I
4. V31C
5. I58S
6. V1F
7. M19C
8. D26V

Result block:
1: -0.714; 2: 0.046; 3: -0.096; 4: -0.103; 5: -0.278; 6: -0.358; 7: -0.091; 8: -0.065

Below are some variants; for each one, tell me its abundance fitness.
1. M19D
2. V51A
3. V12Q

Result block:
-0.09
-0.102
-0.18

Hi there! I need abundance fitness for each item below, if you can.
1. R10T
2. L25R
3. D23Y

Result block:
[0.111, -0.924, -0.825]

For each of the items listed, what is its abundance fitness?
1. V13Q
2. S24G

Result block:
[-0.468, 0.149]
